measurementProtocol: PMN viability (PI neg, Annexin-V neg) after exposure to treated ascites
reportedConditions: human, PMN (neutrophils) exposed to peptide-treated ascites
measuredMetric: viability at 24 h, 20 µM (%)

[[record]]
compound = "CC[C@H](C)[C@H](NC(=O)[C@H](N)Cc1ccc(O)cc1)C(=O)N[C@H]1CSSC[C@@H](C(=O)N(C)[C@H](C(N)=O)[C@@H](C)CC)NC(=O)[C@H](CCCNC(=N)N)NC(=O)[C@H](Cc2c[nH]cn2)NC(=O)[C@H](C)NC(=O)CN(C)C(=O)[C@H](Cc2c[nH]c3ccccc23)NC(=O)[C@H](CC(=O)O)NC(=O)[C@H](CCC(N)=O)NC(=O)[C@H](Cc2cn(C)c3ccccc23)NC(=O)[C@H](C(C)C)NC1=O [Cp40]"
measvalue = 68

